- Tested on: CAKI-1 renal
- experimental.details: NCI tumour cell line growth inhibition, 48 h
measured.quantity: TGI

Return TGI (reported value) for this compound: COc1cccc(CCn2c(N)c(-c3cc(Cl)cc(Cl)c3)c3ccc([N+](=O)[O-])cc3c2=O)c1
41.7 µM

For the compound C/C=C1\Oc2ccc(OC)cc2S1(=O)=O , report TGI.
> 100 µM

Tell me TGI reported for O=c1cccccc1[O-].O=c1cccccc1[O-].O=c1cccccc1[O-].[Nd+3]
> 100 µM

Give reported TGI value for Cc1cc2c(cc1Cl)SC(NNCCO)=NS2(=O)=O
> 100 µM

Give TGI for the following compound: C/C=C\C1OC1(C)c1cc(=O)c2c(C)cc3c(c2o1)C(=O)c1c(O)c(C2CC(C)(N(C)C)C(OC(C)=O)C(C)O2)cc(C2CC(N(C)C)C(O)C(C)O2)c1C3=O (centres undefined)
0.0431 µM

Read off the recorded TGI for CCCCCC(=O)OC[n+]1ccc2c(C)c3[nH]c4ccc(OC)cc4c3c(C)c2c1
> 23 µM

Fill in reported TGI for this entry: Nc1ncnc2c1ccn2CC#CCO
> 100 µM

Give the value of TGI reported for the following: CN(C)CCC(=O)[C@@]1(O)CC[C@H]2[C@@H]3CC=C4C[C@@H](O)CC[C@]4(C)[C@H]3CC[C@@]21C
34.6 µM

Look up TGI of CCC1(c2ccc(OC)c(OC)c2)CCN(S(=O)(=O)c2ccc(C)cc2)C1 (centres undefined) and report it.
> 100 µM

---

Reported TGI is given for each of the following compounds.
- Tested on: MDA-N
- experimental.details: NCI tumour cell line growth inhibition, 48 h
Where a SMILES comes first, the peptide text is derived from it. [ ]: non-standard residue; d: D form. The star is where a group is joined. ξ: configuration not given here. NMeY = CN[C@@H](Cc1ccc(O)cc1)C(=O)O; Cbz = O=C(OCc1ccccc1)*; ξA = CC(N)C(=O)O

>  <compound>
COc1ccc(C[C@@H](C(=O)N[C@@H](C)C(N)=O)N(C)C(=O)[C@@H]2CCCN2C(=O)[C@H](CC(C)C)NC(=O)C(C)NC(=O)OCc2ccccc2)cc1 (stereo partly specified) (Cbz-[ξA]LP[NMeY](Me)A-NH2)

>  <reported.result>
> 100 µM

$$$$
>  <compound>
CCOC(=O)c1sc2nc(SC)nc3c2c1NC(=O)CN3c1ccc(F)cc1

>  <reported.result>
> 100 µM

$$$$
>  <compound>
CCOC(=O)/C(=C\c1c[nH]c2ccccc12)P(=O)(OCC)OCC

>  <reported.result>
> 100 µM

$$$$
>  <compound>
COc1ccc(OC(=O)N2C/C(=C\c3ccccc3)C(=O)/C(=C/c3ccccc3)C2)cc1

>  <reported.result>
3.47 µM

$$$$

Query TGI for CCOC(=O)c1c2ccccc2n2c(=O)n(-c3ccc(OC)cc3)nnc12
> 100 µM

Give the value of TGI reported for the following: c1ccc(-c2cc3nc4ccccc4nc3cc(-c3ccccc3)[nH][nH]2)cc1
> 100 µM

---

- Test system: UACC-62 melanoma
- experimental.details: NCI tumour cell line growth inhibition, 48 h; in the data active = GI50 below about 0.43 µM; inactive = the rest
Pick one: active, inactive

Field: example entries. Status: answers known.
>  <structure.notation>
COc1ccccc1CNCCCN1C(=O)c2ccc3c4c(ccc(c24)C1=O)C(=O)N(CCCNCCCCNCCCN)C3=O

>  <tgt>
UACC-62 melanoma

>  <label.class>
active

$$$$
>  <structure.notation>
CC(C)c1cnc(-c2cc(Cl)ccc2F)cc1Nc1ccncc1C(=O)NC(CO)CO

>  <tgt>
UACC-62 melanoma

>  <label.class>
inactive

$$$$
>  <structure.notation>
O=S(=O)(NCCNc1nccc(-c2c(-c3ccc(F)cc3)nc3sccn23)n1)c1ccc(O)cc1

>  <tgt>
UACC-62 melanoma

>  <label.class>
inactive

$$$$

GET /call?item= COc1cccc2nc(Nc3cccc(NC(=O)c4ccc(N5CCN(C)CC5)c(C(F)(F)F)c4)c3)ccc12 returns the recorded outcome of this test.
inactive

Assay result, entry CC(C)[C@@]12C[C@@H](OC(=O)COC(=O)c3ccccc3)[C@@](C)(O1)[C@@H]1CC[C@@H](C)[C@H]1[C@@H]2OC(=O)/C=C/c1ccccc1 — outcome?
inactive
